test.context: in DMF, 343.15 K
outcome.measure: solubility (mole fraction)

[[record]]
compound_smiles = "O=C(O)c1ccc(C(=O)O)cc1"
assay_result = 0.0394


---

test.context: in DMF, 328.15 K
outcome.measure: solubility (mole fraction)

[[record]]
compound_smiles = "O=C(O)c1ccc(C(=O)O)cc1"
assay_result = 0.0361


---

test.context: in NMP, 348.15 K
outcome.measure: solubility (mole fraction)

[[record]]
compound_smiles = "O=C(O)c1ccc(C(=O)O)cc1"
assay_result = 0.0974


---

test.context: in pyridine, 348.15 K
outcome.measure: solubility (mole fraction)

[[record]]
compound_smiles = "O=C(O)c1ccc(C(=O)O)cc1"
assay_result = 0.0774

